biological target: GLUT3 (Homo sapiens, UniProt P11169, S66Y); construct: gene SLC2A3; GLUT3S66Y; assay: inhibition of […]-glucose ([…]) uptake in hxt0 EBY.S7 yeast expressing the transporter; assay type: cell-based
Sequence (P11169 whole entry S66Y): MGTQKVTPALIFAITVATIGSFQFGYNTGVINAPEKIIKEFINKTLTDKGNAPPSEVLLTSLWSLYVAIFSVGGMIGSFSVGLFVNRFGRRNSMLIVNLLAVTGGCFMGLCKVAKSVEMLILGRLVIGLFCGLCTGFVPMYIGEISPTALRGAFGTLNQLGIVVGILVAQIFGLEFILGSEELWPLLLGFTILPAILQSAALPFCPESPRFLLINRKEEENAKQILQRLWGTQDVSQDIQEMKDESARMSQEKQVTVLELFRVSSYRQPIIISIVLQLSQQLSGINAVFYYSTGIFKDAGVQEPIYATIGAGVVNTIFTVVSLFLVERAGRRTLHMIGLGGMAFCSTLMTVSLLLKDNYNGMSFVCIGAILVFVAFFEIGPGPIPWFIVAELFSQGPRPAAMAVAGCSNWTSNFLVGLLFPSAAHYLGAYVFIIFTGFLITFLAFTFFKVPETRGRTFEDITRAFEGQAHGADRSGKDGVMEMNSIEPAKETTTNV
Readout type: IC50 (µM)
Please respond with the number in µM and leave the unit unwritten.

Q. Reported IC50 for O=c1c(O)c(-c2ccc(O)c(O)c2)oc2cc(O)cc(O)c12 [quercetin] : what is it?
A. 11.6

---

biological target: GLUT2 (Homo sapiens, UniProt P11168, A89S/DEL55-88/Q455R); construct: gene SLC2A2; assay: inhibition of […]-glucose ([…]) uptake in hxt0 EBY.S7 yeast expressing the transporter; assay type: cell-based
Sequence (P11168 with tags, fused parts or gaps DEL55-88/A89S/Q455R): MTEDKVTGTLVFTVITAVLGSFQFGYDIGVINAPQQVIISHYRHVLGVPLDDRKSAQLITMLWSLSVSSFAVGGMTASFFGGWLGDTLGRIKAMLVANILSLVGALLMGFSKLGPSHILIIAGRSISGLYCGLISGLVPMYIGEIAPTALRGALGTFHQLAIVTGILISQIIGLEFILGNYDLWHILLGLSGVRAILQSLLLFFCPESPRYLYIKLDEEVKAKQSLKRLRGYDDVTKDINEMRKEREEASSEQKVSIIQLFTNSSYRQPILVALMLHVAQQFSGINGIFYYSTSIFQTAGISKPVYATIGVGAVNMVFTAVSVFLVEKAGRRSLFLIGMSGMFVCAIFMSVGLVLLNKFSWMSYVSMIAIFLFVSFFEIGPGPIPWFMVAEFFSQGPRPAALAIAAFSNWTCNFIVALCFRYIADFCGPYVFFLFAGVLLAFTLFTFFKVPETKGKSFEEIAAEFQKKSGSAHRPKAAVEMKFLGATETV
Readout type: pIC50
Lab note — pIC50 values are minus log10 of concentrations in M.

Q. Fill blank: measured pIC50 of the compound `O=c1c(O)c(-c2ccc(O)c(O)c2)oc2cc(O)cc(O)c12` is ____.
A. 5.49

src = paper PMC7930720
